These measurements were taken from patent US6451786B1.

Hi! I'm sharing some IC50 results obtained with baculovirus-expressed human trkA cytoplasmic domain (Homo sapiens, UniProt P04629).
Sequence (P04629 440-796 limits assumed): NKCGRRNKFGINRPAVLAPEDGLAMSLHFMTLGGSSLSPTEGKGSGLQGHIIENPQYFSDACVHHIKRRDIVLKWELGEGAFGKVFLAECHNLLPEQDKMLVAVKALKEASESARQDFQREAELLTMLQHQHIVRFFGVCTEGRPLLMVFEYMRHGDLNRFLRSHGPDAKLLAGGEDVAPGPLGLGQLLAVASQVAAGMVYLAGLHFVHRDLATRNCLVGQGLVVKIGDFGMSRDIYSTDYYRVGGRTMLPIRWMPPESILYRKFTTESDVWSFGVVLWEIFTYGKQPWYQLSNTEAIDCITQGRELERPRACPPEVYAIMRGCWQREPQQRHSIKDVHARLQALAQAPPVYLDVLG
Value expressed in nM; do not type the unit.

Task: Could you tell me which IC50 is on file for C[C@]12OC(C[C@H]1CO)n1c3ccccc3c3c4c(c5c6ccccc6n2c5c31)CNC4=O [Compound VI] ?
Result: 2

Task: Form field: reported IC50 of C[C@]12OC(C[C@@]1(O)C(N)=O)n1c3ccccc3c3c4c(c5c6ccccc6n2c5c31)CNC4=O [Compound XV]
Result: 21

Task: For C[C@@]1(O)C[C@H]2O[C@]1(C)n1c3ccccc3c3c4c(c5c6ccccc6n2c5c31)C(=O)NC4 [Compound XXIX, reference compound] , what is its reported IC50?
Result: 7

Task: So what's the measured IC50 for this one? C[C@]1(O)CC2O[C@]1(C)n1c3ccccc3c3c4c(c5c6ccccc6n2c5c31)C(=O)NC4 [Compound X]
Result: 2

###

# Study target: protein kinase C (UBI; mixed isozymes of a, b, g)
# Construct: 1.5 ng protein kinase C (UBI)
# Protocol: Inhibition of protein kinase C activity (Multiscreen TCA in-plate assay)
# Protocol conditions: read-out: PKC IC50
Assay endpoint: IC50 (nM)
Enter your answer as a number in nM; do not include the unit.

Task: Form field: reported IC50 of C[C@@]1(O)CC2O[C@]1(C)n1c3ccccc3c3c4c(c5c6ccccc6n2c5c31)C(=O)NC4 [Compound XXIX, reference compound]
Result: 310

Task: Looking for the measured IC50 of C[C@]12OC(C[C@@]1(O)CO)n1c3ccccc3c3c4c(c5c6ccccc6n2c5c31)CNC4=O , can you help?
Result: 79

Task: Item under review: C[C@]12OC(C[C@H]1CO)n1c3ccccc3c3c4c(c5c6ccccc6n2c5c31)CNC4=O . Reported IC50?
Result: 95

###

# Study target: trkA (Homo sapiens)
# Sequence (P04629 33-796, species assumed): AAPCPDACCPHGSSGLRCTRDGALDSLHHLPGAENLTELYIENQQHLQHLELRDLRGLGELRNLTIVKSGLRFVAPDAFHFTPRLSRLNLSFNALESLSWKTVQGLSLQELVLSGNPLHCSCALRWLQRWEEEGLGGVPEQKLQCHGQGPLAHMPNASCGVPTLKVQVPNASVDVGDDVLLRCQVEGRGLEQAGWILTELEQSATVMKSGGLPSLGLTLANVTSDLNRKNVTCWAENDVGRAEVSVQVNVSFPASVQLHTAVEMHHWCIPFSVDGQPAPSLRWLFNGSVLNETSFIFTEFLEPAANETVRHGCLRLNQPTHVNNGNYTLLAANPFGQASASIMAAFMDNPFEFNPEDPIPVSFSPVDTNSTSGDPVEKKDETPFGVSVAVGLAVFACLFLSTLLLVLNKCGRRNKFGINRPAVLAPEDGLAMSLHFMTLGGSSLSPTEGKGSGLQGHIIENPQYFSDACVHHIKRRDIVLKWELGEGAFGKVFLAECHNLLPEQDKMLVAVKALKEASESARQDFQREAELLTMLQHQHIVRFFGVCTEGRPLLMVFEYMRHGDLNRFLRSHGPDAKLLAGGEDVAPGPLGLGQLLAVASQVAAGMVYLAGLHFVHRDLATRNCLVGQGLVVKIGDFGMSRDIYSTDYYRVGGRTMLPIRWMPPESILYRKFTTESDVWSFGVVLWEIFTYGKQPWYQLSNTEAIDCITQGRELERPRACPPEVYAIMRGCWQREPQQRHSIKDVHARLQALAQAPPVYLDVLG
# Protocol conditions: NIH3T3 cells, NGF-stimulated; read-out: IC50 for inhibiting trk in a whole cell preparation
pIC50: −log10 of the molar value.
Assay endpoint: pIC50

Task: Which pIC50 value is on record for C[C@]1(O)CC2O[C@]1(C)n1c3ccccc3c3c4c(c5c6ccccc6n2c5c31)C(=O)NC4 ?
Result: > 8.00

###

# Test system: dissociated rat embryonic spinal cord culture (ChAT activity)
# Protocol: Enhancement of spinal cord ChAT activity in dissociated rat embryonic spinal cord culture
# Type: cell-based
# Protocol conditions: maximal activity; ChAT measured after 2 days in vitro
Hi there, I'd appreciate the recorded Spinal Cord ChAT % control, Maximal Activity for every entry that follows.
Answer in % control, number only, no unit symbol.

Task: Look up Spinal Cord ChAT % control, Maximal Activity: C[C@]1(O)CC2O[C@]1(C)n1c3ccccc3c3c4c(c5c6ccccc6n2c5c31)C(=O)NC4
Result: 127

Task: May I ask what Spinal Cord ChAT % control, Maximal Activity has been recorded for COC(=O)[C@]1(O)CC2O[C@]1(C)n1c3ccccc3c3c4c(c5c6ccccc6n2c5c31)C(=O)NC4 [Compound XIV, 3′-(R)-K-252a] ?
Result: 195

Task: Sample C[C@]12OC(C[C@@]1(O)C(N)=O)n1c3ccccc3c3c4c(c5c6ccccc6n2c5c31)CNC4=O — what was its Spinal Cord ChAT % control, Maximal Activity?
Result: 129
